target: Voltage-dependent N-type calcium channel subunit alpha-1B (Homo sapiens); assay: In vitro antagonism of N-type voltage sensitive calcium channel in IMR-32 assay using fluorescent [Ca2+] indicator […] in the presence of 5 uM nitrendipine
Sequence (Q00975 whole entry): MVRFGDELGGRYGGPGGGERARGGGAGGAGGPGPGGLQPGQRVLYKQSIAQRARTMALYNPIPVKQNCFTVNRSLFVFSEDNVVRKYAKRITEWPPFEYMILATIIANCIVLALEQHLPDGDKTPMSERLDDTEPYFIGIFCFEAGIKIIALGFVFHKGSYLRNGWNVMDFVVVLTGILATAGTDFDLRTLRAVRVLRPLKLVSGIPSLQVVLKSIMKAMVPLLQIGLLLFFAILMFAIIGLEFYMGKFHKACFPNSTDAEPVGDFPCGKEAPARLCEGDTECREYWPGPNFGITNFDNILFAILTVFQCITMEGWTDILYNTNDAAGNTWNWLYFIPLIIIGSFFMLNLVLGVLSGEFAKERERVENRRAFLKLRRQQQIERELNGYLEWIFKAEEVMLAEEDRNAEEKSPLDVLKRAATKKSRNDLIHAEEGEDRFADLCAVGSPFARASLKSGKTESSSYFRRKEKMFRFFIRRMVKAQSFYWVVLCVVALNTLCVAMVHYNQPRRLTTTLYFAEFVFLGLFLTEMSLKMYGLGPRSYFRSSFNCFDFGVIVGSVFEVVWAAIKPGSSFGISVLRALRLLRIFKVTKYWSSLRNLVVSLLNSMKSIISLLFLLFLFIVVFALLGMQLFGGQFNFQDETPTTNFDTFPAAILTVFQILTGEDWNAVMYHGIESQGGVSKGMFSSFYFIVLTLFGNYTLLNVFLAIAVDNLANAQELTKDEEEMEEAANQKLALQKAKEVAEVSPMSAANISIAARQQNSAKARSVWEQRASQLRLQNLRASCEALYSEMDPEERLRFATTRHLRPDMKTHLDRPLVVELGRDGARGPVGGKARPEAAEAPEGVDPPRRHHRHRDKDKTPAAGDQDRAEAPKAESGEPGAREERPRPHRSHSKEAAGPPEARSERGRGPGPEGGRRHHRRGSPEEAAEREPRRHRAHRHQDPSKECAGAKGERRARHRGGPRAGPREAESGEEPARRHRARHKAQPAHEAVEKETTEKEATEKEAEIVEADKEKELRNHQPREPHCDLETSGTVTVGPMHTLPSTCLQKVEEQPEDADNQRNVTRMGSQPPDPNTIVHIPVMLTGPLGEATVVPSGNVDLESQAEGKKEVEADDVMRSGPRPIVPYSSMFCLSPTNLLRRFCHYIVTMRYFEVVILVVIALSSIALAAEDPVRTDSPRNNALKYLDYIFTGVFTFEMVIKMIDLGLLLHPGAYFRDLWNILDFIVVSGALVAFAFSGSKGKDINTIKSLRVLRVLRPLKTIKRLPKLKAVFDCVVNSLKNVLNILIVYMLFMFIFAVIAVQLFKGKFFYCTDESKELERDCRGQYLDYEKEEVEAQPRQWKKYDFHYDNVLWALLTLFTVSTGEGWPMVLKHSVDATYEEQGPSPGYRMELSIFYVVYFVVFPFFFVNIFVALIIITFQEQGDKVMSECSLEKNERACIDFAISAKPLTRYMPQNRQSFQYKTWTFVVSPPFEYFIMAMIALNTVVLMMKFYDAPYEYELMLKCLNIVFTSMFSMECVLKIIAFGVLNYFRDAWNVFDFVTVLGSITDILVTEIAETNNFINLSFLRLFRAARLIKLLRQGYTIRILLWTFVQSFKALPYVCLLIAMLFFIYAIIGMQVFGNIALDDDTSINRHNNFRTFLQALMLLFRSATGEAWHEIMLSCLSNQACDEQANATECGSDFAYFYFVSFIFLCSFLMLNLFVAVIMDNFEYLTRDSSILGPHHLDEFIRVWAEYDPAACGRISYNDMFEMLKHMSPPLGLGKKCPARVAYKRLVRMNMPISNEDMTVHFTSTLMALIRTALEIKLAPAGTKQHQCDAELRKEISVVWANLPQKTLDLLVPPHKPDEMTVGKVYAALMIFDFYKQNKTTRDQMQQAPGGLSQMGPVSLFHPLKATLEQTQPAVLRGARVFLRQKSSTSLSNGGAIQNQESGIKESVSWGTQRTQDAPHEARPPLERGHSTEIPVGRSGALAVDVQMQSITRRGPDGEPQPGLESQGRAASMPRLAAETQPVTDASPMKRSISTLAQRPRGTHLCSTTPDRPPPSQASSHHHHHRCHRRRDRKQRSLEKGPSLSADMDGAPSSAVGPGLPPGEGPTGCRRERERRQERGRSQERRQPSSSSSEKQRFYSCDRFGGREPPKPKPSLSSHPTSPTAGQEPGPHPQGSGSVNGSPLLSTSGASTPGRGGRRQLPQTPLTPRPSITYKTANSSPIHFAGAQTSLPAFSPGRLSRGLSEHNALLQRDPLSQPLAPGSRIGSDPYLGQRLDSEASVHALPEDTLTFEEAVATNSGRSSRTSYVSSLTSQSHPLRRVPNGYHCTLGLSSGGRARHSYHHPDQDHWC
MEASURED_PROPERTY: IC50 (nM)

Known IC50 results, listed for orientation:
SMILES_CODE	SYSTEM_NAME	IC50 [nM]
CC(C)C[C@@H](C(=O)N[C@@H](Cc1ccc(OCc2ccccc2)cc1)C(=O)NC(C)(C)C)N(C)CC1CCCCC1	Voltage-dependent N-type calcium channel subunit alpha-1B (Homo sapiens)	500
CC(C)CCN(C)[C@@H](CC(C)C)C(=O)N[C@@H](Cc1ccc(OCc2ccccc2)cc1)C(=O)N1CCN(C)CC1	Voltage-dependent N-type calcium channel subunit alpha-1B (Homo sapiens)	1200
CC(C)C[C@@H](C(=O)N[C@@H](Cc1ccc(OCc2ccccc2)cc1)C(=O)NC(C)(C)C)N(C)C1CCCCC1	Voltage-dependent N-type calcium channel subunit alpha-1B (Homo sapiens)	200
CC(C)C[C@@H](C(=O)N[C@@H](Cc1ccc(OCc2ccccc2)cc1)C(=O)N1CCCCC1)N(C)CC1CCCCC1	Voltage-dependent N-type calcium channel subunit alpha-1B (Homo sapiens)	320
CC(C)C[C@@H](C(=O)N[C@@H](Cc1ccc(OCc2ccccc2)cc1)C(=O)N1CCN(C)CC1)N(C)C	Voltage-dependent N-type calcium channel subunit alpha-1B (Homo sapiens)	13000

P: CC(C)C[C@@H](C(=O)N[C@@H](Cc1ccc(OCc2ccccc2)cc1)C(=O)NCCN1CCCCC1)N(C)CC1CCCCC1
Q: CC(C)C[C@@H](C(=O)N[C@@H](Cc1ccc(OCc2ccccc2)cc1)C(=O)NC1CCN(Cc2ccccc2)CC1)N(C)CC1CCCCC1
R: CC(C)C[C@@H](C(=O)N[C@@H](Cc1ccc(OCc2ccccc2)cc1)C(=O)N1CCCCC1)N(C)Cc1ccc(C(C)(C)C)cc1
S: CC(C)C[C@@H](C(=O)N[C@@H](Cc1ccc(OCc2ccccc2)cc1)C(=O)NC1CCN(Cc2ccccc2)CC1)N(C)C
T: CC(C)C[C@@H](C(=O)N[C@@H](Cc1ccc(OCc2ccccc2)cc1)C(=O)NCCN1CCCCC1)N(C)C
Order the records, beginning with the lowest IC50 and ending with the highest. Please, when replying, give the labels in the order that was requested.
R, Q, P, S, T
(R: 90 nM, Q: 310 nM, P: 1000 nM, S: 2600 nM, T: 4100 nM)

A: CC(C)C[C@@H](C(=O)N[C@@H](Cc1ccc(OCc2ccccc2)cc1)C(=O)N1CCN(Cc2ccccc2)CC1)N(C)C1CCCCC1
B: CC(C)C[C@@H](C(=O)N[C@@H](Cc1ccc(OCc2ccccc2)cc1)C(=O)NCCN1CCCCC1)N(C)Cc1ccc(C(C)(C)C)cc1
C: CC(C)C[C@@H](C(=O)N[C@@H](Cc1ccc(OCc2ccccc2)cc1)C(=O)N1CCN(C)CC1)N(C)CC1CCCCC1
Order the records, beginning with the lowest IC50 and ending with the highest. Please, when replying, give the labels in the order that was requested.
B, A, C

A: CC(C)C[C@@H](C(=O)N[C@@H](Cc1ccc(OCc2ccccc2)cc1)C(=O)N1CCCCC1)N(C)C1CCCCC1
B: CC(C)CCN(C)[C@@H](CC(C)C)C(=O)N[C@@H](Cc1ccc(OCc2ccccc2)cc1)C(=O)NC1CCN(Cc2ccccc2)CC1
C: CC(C)C[C@@H](C(=O)N[C@@H](Cc1ccc(OCc2ccccc2)cc1)C(=O)N1CCN(C)CC1)N(C)C1CCCCC1
Order the records, beginning with the lowest IC50 and ending with the highest. Please, when replying, give the labels in the order that was requested.
A, B, C

P: CC(C)CCN(C)[C@@H](CC(C)C)C(=O)N[C@@H](Cc1ccc(OCc2ccccc2)cc1)C(=O)NC(C)(C)C
Q: CC(C)C[C@@H](C(=O)N[C@@H](Cc1ccc(OCc2ccccc2)cc1)C(=O)NC(C)(C)C)N(C)Cc1ccc(C(C)(C)C)cc1
Compare P and Q by numeric IC50 and name the larger one. Selection: enter the item's label.
P

A: CC(C)C[C@@H](C(=O)N[C@@H](Cc1ccc(OCc2ccccc2)cc1)C(=O)N1CCN(Cc2ccccc2)CC1)N(C)CC1CCCCC1
B: CC(C)CCN(C)[C@@H](CC(C)C)C(=O)N[C@@H](Cc1ccc(OCc2ccccc2)cc1)C(=O)N1CCCCC1
C: CC(C)C[C@@H](C(=O)N[C@@H](Cc1ccc(OCc2ccccc2)cc1)C(=O)NC1CCN(Cc2ccccc2)CC1)N(C)Cc1ccc(C(C)(C)C)cc1
D: CC(C)CCN(C)[C@@H](CC(C)C)C(=O)N[C@@H](Cc1ccc(OCc2ccccc2)cc1)C(=O)NCCN1CCCCC1
E: CC(C)C[C@@H](C(=O)N[C@@H](Cc1ccc(OCc2ccccc2)cc1)C(=O)N1CCCCC1)N(C)C
Order the records, beginning with the lowest IC50 and ending with the highest. Please, when replying, give the labels in the order that was requested.
C, A, B, D, E

P: CC(C)CCN(C)[C@@H](CC(C)C)C(=O)N[C@@H](Cc1ccc(OCc2ccccc2)cc1)C(=O)N1CCN(Cc2ccccc2)CC1
Q: CC(C)C[C@@H](C(=O)N[C@@H](Cc1ccc(OCc2ccccc2)cc1)C(=O)NCCN1CCCCC1)N(C)C1CCCCC1
Parameter metric = IC50. Return the lower-valued option from P and Q . Selection: enter the item's label.
P
(P: 590 nM, Q: 880 nM)

a: CC(C)C[C@@H](C(=O)N[C@@H](Cc1ccc(OCc2ccccc2)cc1)C(=O)N1CCN(C)CC1)N(C)Cc1ccc(C(C)(C)C)cc1
b: CC(C)C[C@@H](C(=O)N[C@@H](Cc1ccc(OCc2ccccc2)cc1)C(=O)N1CCN(Cc2ccccc2)CC1)N(C)C
Parameter metric = IC50. Return the lower-valued option from a and b . Selection: enter the item's label.
a
(a: 440 nM, b: 1200 nM)

A: CC(C)C[C@@H](C(=O)N[C@@H](Cc1ccc(OCc2ccccc2)cc1)C(=O)NC(C)(C)C)N(C)C
B: CC(C)C[C@@H](C(=O)N[C@@H](Cc1ccc(OCc2ccccc2)cc1)C(=O)N1CCN(Cc2ccccc2)CC1)N(C)Cc1ccc(C(C)(C)C)cc1
C: CC(C)C[C@@H](C(=O)N[C@@H](Cc1ccc(OCc2ccccc2)cc1)C(=O)NC1CCN(Cc2ccccc2)CC1)N(C)C1CCCCC1
Order the records, beginning with the lowest IC50 and ending with the highest. Please, when replying, give the labels in the order that was requested.
B, C, A
